Where do the numbers come from? From patent US20210139548A1.

# Lookup of reported pKi keyed by entry
# Study target: T1, human neuropeptide Y2 receptor (human, UniProt P49146 1-381)
# T1 construct: whole, on cells; also called hNPY2 receptor; hNPY2-R
# T1 sequence (looked up): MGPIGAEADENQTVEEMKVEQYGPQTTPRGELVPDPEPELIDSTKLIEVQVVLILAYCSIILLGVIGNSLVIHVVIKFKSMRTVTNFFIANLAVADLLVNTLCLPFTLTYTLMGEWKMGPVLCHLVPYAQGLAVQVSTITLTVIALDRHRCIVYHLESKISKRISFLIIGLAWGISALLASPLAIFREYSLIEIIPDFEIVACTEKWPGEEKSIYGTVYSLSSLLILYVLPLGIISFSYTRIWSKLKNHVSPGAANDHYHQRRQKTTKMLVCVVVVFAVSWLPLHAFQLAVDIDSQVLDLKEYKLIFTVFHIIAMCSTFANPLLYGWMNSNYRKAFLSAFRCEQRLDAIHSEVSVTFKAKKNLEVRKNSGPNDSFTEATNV
# Assay overview: radioligand competition (125I-PYY(1-36)), hY2R membranes; DMSO stock
pKi: −log10 of the molar value. *1 amine or outer side, *2 acyl side, *3 side chain or, on linkers, in order; H or OH if unused. Side-chain parts run from the residue outwards. The star is where a group is joined. C18 diacid = O=C(O)CCCCCCCCCCCCCCCCC(=O)*; γGlu = O=C(O)[C@H](CCC(=O)[*:2])N[*:1]; Isovaleryl = CC(C)CC(=O)*; AEEA = NCCOCCOCC(=O)O
Measured quantity: pKi

binder="Isovaleryl-APAK([AEEA-AEEA-γGlu-C18 diacid])PEEDATPEELQRYYVSLRHYYNWLTRQRY-NH2 [Compound 106]" obs_value=8.22
binder="Isovaleryl-APAK([AEEA-AEEA-γGlu-C18 diacid])PEEDASPEELQRYYVSLRHYYNWLTRQRY-NH2 [Compound 203]" obs_value=8.52
binder="Isovaleryl-APAK([AEEA-AEEA-γGlu-C18 diacid])PEEDASPEEIQRYYVSLRHYYNWLTRQRY-NH2 [Compound 23]" obs_value=8.31
binder="Isovaleryl-APEK([AEEA-AEEA-γGlu-C18 diacid])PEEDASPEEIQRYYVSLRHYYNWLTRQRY-NH2 [Compound 84]" obs_value=8.46
binder="Isovaleryl-APEK([AEEA-AEEA-γGlu-C18 diacid])PEADASPEEIQRYYVSLRHYYNWLTRQRY-NH2 [Compound 53]" obs_value=8.70
